- SYSTEM: T1, TauC3 (C-terminally truncated tau fragment ending at aspartate 421 of htau40) (human, UniProt P10636 1-738)
- T1 construct: Generated and purified by Genscript; also called Human TauC3; recombinant TauC3 protein
- T1 sequence (P10636 other isoform, or with tags, fused parts or gaps): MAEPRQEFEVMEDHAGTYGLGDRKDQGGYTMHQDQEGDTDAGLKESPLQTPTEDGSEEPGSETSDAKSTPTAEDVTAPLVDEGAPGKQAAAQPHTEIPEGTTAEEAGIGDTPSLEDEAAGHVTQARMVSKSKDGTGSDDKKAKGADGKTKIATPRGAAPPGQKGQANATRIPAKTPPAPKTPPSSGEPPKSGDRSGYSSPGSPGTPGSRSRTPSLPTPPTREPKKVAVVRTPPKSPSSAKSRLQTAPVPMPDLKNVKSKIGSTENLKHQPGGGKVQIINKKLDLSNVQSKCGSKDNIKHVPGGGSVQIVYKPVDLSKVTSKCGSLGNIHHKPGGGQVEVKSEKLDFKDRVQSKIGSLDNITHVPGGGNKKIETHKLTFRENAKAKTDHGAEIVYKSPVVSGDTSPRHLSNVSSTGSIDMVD
- PROTOCOL_DETAILS: Biacore kinetics, TauC3 amine-coupled on CM5, antibody series, 1:1 global fit
ASSAY_METRIC: log10(koff) (log10 of the value in s⁻¹)
A difference of one corresponds to tenfold koff; all values are log10 with koff in s⁻¹.

| BINDER | log10(koff) |
| --- | --- |
| Tau01 HMKM HuG4k (antibody, V domains shown, human IgG4 kappa (HuG4K)) VH: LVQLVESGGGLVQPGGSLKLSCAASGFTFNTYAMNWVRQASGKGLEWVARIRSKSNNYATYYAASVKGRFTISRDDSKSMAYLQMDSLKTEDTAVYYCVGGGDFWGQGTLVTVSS VL: DIQMTQSPSSLSASVGDRVTITCRASQEISVYLSWFQQKPGKAIKRLIYGAFSLQSGVPSRFSGSRSGTEYTLTISSLQPEDFATYYCLQYVRYPWTFGGGTKVEIK | -1.74 |
| Tau01 HMKE HuG4k (antibody, V domains shown, human IgG4 kappa (HuG4K); also called KMKE) VH: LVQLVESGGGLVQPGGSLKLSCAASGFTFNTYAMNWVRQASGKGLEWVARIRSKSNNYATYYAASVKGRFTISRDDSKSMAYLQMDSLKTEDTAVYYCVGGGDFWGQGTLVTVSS VL: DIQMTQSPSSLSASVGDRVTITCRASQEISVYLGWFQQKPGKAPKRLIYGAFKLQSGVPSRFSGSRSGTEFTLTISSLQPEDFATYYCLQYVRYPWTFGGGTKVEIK | -2.55 |
| Tau01 HMKO HuG4k (antibody, V domains shown, human IgG4 kappa (HuG4K)) VH: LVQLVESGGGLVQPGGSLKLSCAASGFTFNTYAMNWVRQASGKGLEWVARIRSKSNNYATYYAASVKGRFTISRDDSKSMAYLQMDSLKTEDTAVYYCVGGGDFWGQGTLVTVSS VL: DIQMTQSPSSLSASVGDRVTITCRASQEISVYLGWYQQKPGKAPKRLIYGAFSLQSGVPSRFSGSRSGTEYTLTISSLQPEDFATYYCLQYVRYPWTFGGGTKVEIK | -2.45 |
| Tau01 HMKP HuG4k (antibody, V domains shown, human IgG4 kappa (HuG4K); Lead candidate) VH: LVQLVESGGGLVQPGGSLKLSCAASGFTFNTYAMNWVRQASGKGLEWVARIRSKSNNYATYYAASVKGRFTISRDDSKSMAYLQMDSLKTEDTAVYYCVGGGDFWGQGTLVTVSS VL: DIQMTQSPSSLSASVGDRVTITCRASQEISVYLGWFQQKPGKAPKRLIYGAFKLQSGVPSRFSGSRSGTEYTLTISSLQPEDFATYYCLQYVRYPWTFGGGTKVEIK | -2.73 |

Here is the next item to consider.
In plain terms, Tau01 HCKB HuG4K (antibody, V domains shown, human IgG4 kappa (HuG4K)) VH: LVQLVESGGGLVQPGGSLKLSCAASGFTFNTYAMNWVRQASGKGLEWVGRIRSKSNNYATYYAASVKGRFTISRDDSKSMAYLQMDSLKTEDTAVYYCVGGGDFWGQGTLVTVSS VL: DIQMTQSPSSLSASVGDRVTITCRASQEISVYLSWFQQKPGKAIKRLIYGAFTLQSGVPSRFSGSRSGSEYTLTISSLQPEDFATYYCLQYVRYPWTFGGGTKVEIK has a documented log10(koff) of -1.60
